# credit: the nanobody polyreactivity screen of Harvey et al. (2022)

ASSAY EXPLANATION: yeast display, Sf9 membrane polyspecificity reagent, FACS + sequencing; frameworks hold sequencing errors
ENDPOINT NAME: polyreactivity (PSR sort gate)

QVQLVESGGGLVQAGGSLRLSCAASGYIFFRYAMGWYRQAPGKERELVAAINSSGDSTYADSVKGRFTISRDNAKNTVYLQMNSLKPEDTAVYYCNKDAPLFHDIIIDMDYWGQGTQVTVSS = low polyreactivity
QVQLVESGGGLFQAGGSLRLSCAPSGIFRYYVMGWYIQAPGKERELVAAISWGGGSTYYADSVKGRFTISRDNPKNTVYLQMNSLKPEDTAVYYCAARDLRKLYSRYPYYYWGQGTQVTVSS = high polyreactivity
QVQLVESVGGLVQAGGSLRLSCAASGITFYYNAMGWSRQAPGKERELVAVITSGGSTNYADSVKGRFTISRDNAKNTVYLQMNSLKPEDTAVYYCATDKSYSSWSAQYDYWGQGTQVTVSS = low polyreactivity
QVQLVESGGGLVQAGGSLRLSCAASGFIFRRNVMGWYRQAPGKERELVAAISRSGASTYYADSVKGRFTISRDNAKNTVYLQMNSLKPEDTAVYYCNKRDKVTYSYDYWGQGTQVTVSS = high polyreactivity
QVQLVESGGGLVQAGGSLRLSCAASGSTFASYAMGWDRQAPGKERELVAAITDSGGSTYYADSVKGRFTISRDNAKNTVYLQMNSLKPEDTAVYYCAAYGPYFSYHDYDYWGQGTQVTVSS = low polyreactivity
QVQLVESGGGLVQAGGSLPLSCAASGRTFGSYVMRWYRQAPGKERELVATISRRGGTTYYADSVKGRFTISRDNAKNTVYLQMNSLKPEDTAVYYCAAKYFATRYDYWGQGTQVTVSS = high polyreactivity
QVQLVESGGGLVQAGGSLRLSCAASGLTFEYNAMGWYRQAPGKERELVASISSGGGTNYADSVKGRFTISRDNAKNTVYLQMNSLKPEDTAVYYCATDNYDWSCWAFRGYWYDYWGQGTQVTVSS = low polyreactivity
QVQLVESGGGLVQAGGSLRLSCAASGRTFRSYAMGWYRQAPGKERELVAAISRRGGTTYYADSVKGRFTISRDNAKNTVYLQMNSLKPEDTAVYYCAATSYTYVLSPYRGDYWGQGTQVTVSS = high polyreactivity
QVQLVESGGGLFQAGGSLRLSCAASGRTFVKYDMGWYRHAPGKERELVAAISRRGGSTYYADSVKGRFTISRDNAKNTVYLQMNSLKPEDTAVYYCNAVHPKDVDSYRDRDYWGQGTQVTVSS = high polyreactivity
QVQLVESGGGLVQAGGSLRLSCAASGSIFYWNAMGWYRQAPGKEREFVADISQSGDSTYYADSVKGRFTISRDNAKNTVYLQMNSLKPEDTAVYYCAAQFLSYAWDYDYWGQGTQVTVSS = low polyreactivity
QVQLVESGGGLVQAGGSHRLSCAASGSIFWSYAMGWYRQAPGKARELVASISRRGGSTSYADSVKGRFTISRDNAKNTVYLQMNSLKPEDTAVYYCNAYGRQNHYYWGQGTQVTVSS = high polyreactivity
QVQLVESGGGLVQAGGSLRLSCAASGSTFLVYDRGWYRQAPGKERELVAAITWSGGSTYYADSVKGRFTISRDNAKNTVYLQINSLTPEYTAVYYCAAEIHRTYSWEYPYEMYWGQGTQVTVSS = high polyreactivity
QVQLVESGGGLVQAGGSLRLSCAASGRTFYHNAMGWYRQAPGKERELVAAITSGARTKYADSVKGRFTISRDNAKNTVYLQMNSLKPEDTAVYYCAAVYYFGKGKTFDYWGQGTQVTVSS = high polyreactivity
QVQLQESGGGLVQAGGCLSCTASGTIFGQGDMGWSRQSPGKERELVATINDGASTYYADSVKGRFTISRDKAKNTVYLQKNSLKPDDTAVYYCAVLTDITTYFGYWGQGTQVTVSS = low polyreactivity
QVQLVESGGGLVQAGGSLRLSCAASGFTFAYNAMGWYRQAPGKERELVAAISSSGGRTYYADSVKGRFTISRDNAKNTVYLQMNSLKPEDTAVYDCATRPKVAYEYDYWGQGTQVTVSS = high polyreactivity
QVQLVESGGGLVQAGGSLSLSCAASGSTFNRNAMGWDRQAPGKEREFVAAITWSGGSTYYADSVKGRFTISRDNAKNTVYLQMNSLKPEDTAVYYCNADRFSSRHSYDYWGQGTQVTVSS = low polyreactivity
QVQLVESAAGLVQAGGSLRLTCDGSGTTFPGYAMGWYRPEPGNERELVAAGGSTYYADSVKGRFTISRDNAKNTVYFQMNCLKPVETAGYYCAASWGSFQKGTYYYWGQGTQVTVSS = low polyreactivity
QVQLVESGGGLVQAGGSLRLSCAASGNTLDAYTMGWYRQAPGKERELVAAISRGGTRTYYADSVKGRFTISRDNAKNTVYLQMNSLKPEDTAVYYCNKQFPYSKYYIMGYWGQGTQVTVSS = high polyreactivity
QDQLVESCGGLVQAGGSLRISCAASGRIFLPTAMGGYRQAPGKERELVAAINSSDASTDFADSVQGRFTISRDHAKTTVYLQRNSLKPEDTAVYYCAAENDTSDAVRYDYWGQGTQVTVSS = low polyreactivity
QVQLVESGGGLVQAGGSLRLSCAASGFTFDDYTMGWYRHAPGKERELVAAITSSGDSTYYADSVKGRFTISRDNAKNTVYLQMNSLKPEDTAVYYCAAQSYPFDRDYWGQGTQVTVSS = high polyreactivity
QVQLVESGGGLVQAGGSLRLICAASGFIFGNYAMGWYRQAPGKERELVATITWRGGSTYYADSVKGRFTISRDNAKNTVYLQMNSLKPEDTAVYYCARPYASYRSFYYYGYWGQGTQVTVSS = high polyreactivity
